- measurement.target: T1, human GIP receptor (human, UniProt P48546 22-466)
- T1 sequence (looked up): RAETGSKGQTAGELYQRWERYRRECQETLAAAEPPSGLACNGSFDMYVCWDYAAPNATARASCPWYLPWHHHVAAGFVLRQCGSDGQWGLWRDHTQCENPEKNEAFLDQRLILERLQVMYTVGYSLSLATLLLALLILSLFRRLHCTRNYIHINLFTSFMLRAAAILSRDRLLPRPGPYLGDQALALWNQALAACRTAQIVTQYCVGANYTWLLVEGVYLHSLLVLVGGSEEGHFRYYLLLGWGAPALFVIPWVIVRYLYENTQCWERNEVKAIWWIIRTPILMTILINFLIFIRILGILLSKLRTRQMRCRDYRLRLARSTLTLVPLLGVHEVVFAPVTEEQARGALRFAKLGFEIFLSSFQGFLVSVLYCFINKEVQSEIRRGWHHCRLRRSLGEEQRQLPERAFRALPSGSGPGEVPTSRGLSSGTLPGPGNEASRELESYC
- test.method.notes: cell-based or functional assay
Bridges are numbered along the chain shown (N, C = ends). Where no end group is shown, it is not given here. [ ]: non-standard residue; d: D form. The star is where a group is joined. Acetyl(2-(4-imidazolyl)) = O=C(Cc1c[nH]cn1)*; Aib = CC(C)(N)C(=O)O
property.label: in vitro Activity Compared to Native Peptide (%), vs GIP
Just the number please, in %, no unit attached.

// in vitro Activity Compared to Native Peptide (%), vs GIP value for [Acetyl(2-(4-imidazolyl))][Aib]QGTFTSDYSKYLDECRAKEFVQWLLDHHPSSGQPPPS (bridge 16-20; not fully specified (C-terminus)) [triple agonist of SEQ ID NO: 73] : 3

// in vitro Activity Compared to Native Peptide (%), vs GIP value for Y[Aib]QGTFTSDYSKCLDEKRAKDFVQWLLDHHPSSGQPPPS (bridge 16-20; not fully specified (C-terminus)) [triple agonist of SEQ ID NO: 70] : 64.4

// in vitro Activity Compared to Native Peptide (%), vs GIP value for H[Aib]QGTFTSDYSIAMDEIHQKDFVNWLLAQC (bridge 16-20; not fully specified (C-terminus)) [triple agonist of SEQ ID NO: 55] : 2.4

// in vitro Activity Compared to Native Peptide (%), vs GIP value for Y[Aib]QGTFTSDYSKYLDEKRAKEFVQWLLDCHPSSGQPPPS (bridge 16-20; not fully specified (C-terminus)) [triple agonist of SEQ ID NO: 97] : 2.6
